Numbers sourced from patent US10550100B2.

TARGET OR SYSTEM: human TACE (Homo sapiens (Human))
Sequence (P78536 215-671): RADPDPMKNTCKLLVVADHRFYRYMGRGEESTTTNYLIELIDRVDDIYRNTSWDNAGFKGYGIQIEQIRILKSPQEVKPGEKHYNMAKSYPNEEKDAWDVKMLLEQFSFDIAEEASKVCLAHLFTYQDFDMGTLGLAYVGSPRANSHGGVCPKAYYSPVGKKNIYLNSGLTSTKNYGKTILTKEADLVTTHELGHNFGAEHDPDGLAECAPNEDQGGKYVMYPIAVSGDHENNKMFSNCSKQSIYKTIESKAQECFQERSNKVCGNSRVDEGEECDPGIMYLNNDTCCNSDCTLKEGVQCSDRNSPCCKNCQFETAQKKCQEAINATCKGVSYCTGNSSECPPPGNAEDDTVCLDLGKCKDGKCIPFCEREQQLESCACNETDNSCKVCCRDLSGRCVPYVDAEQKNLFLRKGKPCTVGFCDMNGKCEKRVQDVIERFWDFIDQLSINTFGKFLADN
ASSAY INFO: hTACE 5FAM-[…]-5TAMRA cleavage assay
Assay type: biochemical
TEST PARAMETERS: 5FAM-[…]-5TAMRA, 75 min at room temperature; read-out: hTACE potency IC50
ASSAY READOUT: IC50

So what does the record say about IC50 for `COc1cc(C2CCN(C(=O)CC[C@@]3(C)NC(=O)NC3=O)CC2)cc(Cl)c1F` ?
25 to 50 nM

And what about the molecule COC[C@]1(C[C@H](C)C(=O)N2CCC(c3ccc(Cl)cc3OC)CC2)NC(=O)NC1=O (stereo in doubt) ?
50 to 100 nM

Do the same for COC[C@]1(C[C@H](C)C(=O)N2CCC(c3cc(Cl)c(F)cc3OC)CC2)NC(=O)NC1=O (stereo in doubt) please
50 to 100 nM

Then what about the molecule `COc1cc(C2CCN(C(=O)CC[C@H]3NC(=O)NC3=O)CC2)cc(Cl)c1Cl` ?
50 to 100 nM

====

So I've got a bunch of compounds here, and I need their pIC50 values.
TARGET OR SYSTEM: human TACE (Homo sapiens (Human))
ASSAY INFO: hTACE 5FAM-[…]-5TAMRA cleavage assay
Assay type: biochemical
TEST PARAMETERS: 5FAM-[…]-5TAMRA, 75 min at room temperature; read-out: hTACE potency IC50
pIC50: −log10 of the molar value.

# pIC50 lookup, item CCc1cc(C2CCN(C(=O)[C@@H](C)C[C@@]3(COC)NC(=O)NC3=O)CC2)cc(OC)c1Cl (stereo in doubt)
7.00 to 7.30

Now consider Cc1cccc(C2CCN(C(=O)[C@@H](C)C[C@@]3(C)NC(=O)NC3=O)CC2)c1 (stereo in doubt) .
7.00 to 7.30

// next record `CCOc1cc(C2CCN(C(=O)CC[C@@]3(C)NC(=O)NC3=O)CC2)cc(OC)c1Cl`
7.00 to 7.30

Same thing, different compound: COc1cc(C2CCN(C(=O)[C@@H](C)C[C@@]3(C)NC(=O)NC3=O)CC2)cc(C)c1Cl (stereo in doubt)
7.00 to 7.30

Another compound: COC[C@]1(C[C@H](C)C(=O)N2CCC(c3cc(C)c(Cl)c(OC)c3)CC2)NC(=O)NC1=O (stereo in doubt)
7.00 to 7.30

Again, but for `COc1cc(C2CCN(C(=O)CC[C@H]3NC(=O)NC3=O)CC2)cc(OC)c1F`
7.00 to 7.30

Also check Cc1cc(Cl)c(Cl)cc1C1CCN(C(=O)CCC2(C)NC(=O)NC2=O)CC1 (stereo not drawn)
7.00 to 7.30

Moving on to the next compound: `COc1cc(C2CCN(C(=O)CC[C@@]3(C)NC(=O)NC3=O)CC2)cc(C)c1Cl`
7.30 to 7.60

C[C@@H](C[C@@]1(C)NC(=O)NC1=O)C(=O)N1CCC(c2cc(Cl)cc(Cl)c2)CC1 (stereo in doubt) , same question.
7.00 to 7.30

One more compound: `COc1cc(Cl)cc(C2CCN(C(=O)CC[C@@]3(C)NC(=O)NC3=O)CC2)c1`
7.30 to 7.60

Again, but for `COc1cc(C2CCN(C(=O)CC[C@@]3(C)NC(=O)NC3=O)CC2)cc(N(C)C)c1Cl`
7.00 to 7.30

Similarly, COC[C@]1(C[C@H](C)C(=O)N2CCC(c3cc(F)c(Cl)c(OC)c3)CC2)NC(=O)NC1=O (stereo in doubt) ?
7.00 to 7.30
